Target Of Assay: GLUT1 (Homo sapiens, UniProt P11166)
Sequence (P11166 whole entry, species assumed): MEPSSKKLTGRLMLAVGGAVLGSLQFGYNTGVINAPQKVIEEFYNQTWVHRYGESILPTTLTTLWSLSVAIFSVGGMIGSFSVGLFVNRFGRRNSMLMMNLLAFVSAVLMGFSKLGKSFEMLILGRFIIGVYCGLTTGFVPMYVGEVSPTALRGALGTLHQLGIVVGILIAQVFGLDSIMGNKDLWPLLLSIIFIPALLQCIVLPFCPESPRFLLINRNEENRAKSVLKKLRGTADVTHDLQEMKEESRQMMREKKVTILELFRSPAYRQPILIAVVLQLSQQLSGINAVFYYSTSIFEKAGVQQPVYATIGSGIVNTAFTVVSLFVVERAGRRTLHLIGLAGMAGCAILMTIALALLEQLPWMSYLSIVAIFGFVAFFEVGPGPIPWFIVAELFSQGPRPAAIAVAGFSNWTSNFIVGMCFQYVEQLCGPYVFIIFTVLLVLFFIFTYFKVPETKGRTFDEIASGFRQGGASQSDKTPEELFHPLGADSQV
Experimental Details: Indirect measurement of GLUT1 activity by quantification of intracellular ATP levels (glucose induced ATP increase)
Format: cell-based
Design: endogenous in cells; host or cells: DLD1 or CHO-K1
Experimental Conditions: read-out: IC50 regarding glucose induced ATP increase (GLUT1 inhibition)
Quantity Name: IC50 (nM)

Worked examples follow.
Compound | Result Unit | IC50
Cc1ccc(C#N)c(Cn2nc(C)c(NC(=O)c3cc(C(N)=O)nc4cc(F)c(Cl)cc34)c2C)c1 [Example 1699] | nM | 11.3
Cc1nn(Cc2ccc(C(=O)N[C@H]3CC[C@@H](O)CC3)cc2)c(C)c1NC(=O)c1cc(C(F)(F)F)nc2ccc(Br)cc12 [Example 1062] | nM | 16.4

(a) Cc1nn(Cc2ccc(CC(=O)Nc3ccccc3)cc2)c(C)c1NC(=O)c1cc(C(F)(F)F)nc2ccc(Br)cc12 [Example 155]
(b) COC(=O)c1coc(Cn2nc(C(F)(F)F)c(NC(=O)c3cc(C(N)=O)nc4ccccc34)c2C)n1 [Example 1680]
Ask | Could you tell me which of these two has the smaller IC50 figure? First: a Second: b Kindly give the label for the entry you pick.
Reply | b
